Where do the numbers come from? From patent US9630957B2.

I'd appreciate it if you could supply melting point values for the items below.

The examples below pair each entry with its known result.
O=C(Nc1ccc([N+](=O)[O-])cc1)[C@H]1O[C@@H]1C(=O)N(Cc1ccccc1)c1ccccc1 [Compound 9] : 160.2 to 161.3 °C
CCOC(=O)c1csc(NC(=O)[C@H]2O[C@@H]2C(=O)N(Cc2ccc(F)cc2)c2ccc(C(=O)Nc3nc4ccccc4s3)cc2)n1 [Compound 33] : 220.5 to 221.6 °C

Next compound, melting point to be filled in.
Would you kindly share the measured melting point for COC(=O)c1cnc(NC(=O)[C@H]2O[C@@H]2C(=O)N(Cc2ccc(F)cc2)c2ccc(C(=O)Nc3nc4ccccc4s3)cc2)s1 [Compound 36] ?
219.8 to 220.2 °C
